Target: UniProt P21452
Sequence (P21452 whole entry): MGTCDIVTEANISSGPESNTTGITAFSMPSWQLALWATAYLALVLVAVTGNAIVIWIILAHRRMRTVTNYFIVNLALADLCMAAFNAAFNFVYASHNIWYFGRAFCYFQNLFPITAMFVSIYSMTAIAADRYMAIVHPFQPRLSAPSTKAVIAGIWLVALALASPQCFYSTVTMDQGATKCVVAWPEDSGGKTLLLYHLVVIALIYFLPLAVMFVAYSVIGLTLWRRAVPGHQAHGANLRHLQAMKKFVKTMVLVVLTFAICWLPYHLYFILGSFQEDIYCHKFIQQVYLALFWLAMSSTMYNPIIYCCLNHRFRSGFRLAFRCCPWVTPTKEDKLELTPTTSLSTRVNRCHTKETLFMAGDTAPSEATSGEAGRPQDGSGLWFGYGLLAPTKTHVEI
Assay: Inhibition of human recombinant NK2 receptor at 10 uM by radioligand binding assay
Calls of active or inactive are those of the source. The calls are words filed in the database; no cut-off is given here.
measured_endpoint: inhibition

Example entries begin here.
>  <given_smiles>
COc1ccc(-c2ccn(-c3ccc(C(=O)O)c(O)c3)c2-c2ccc(C(N)=O)cc2C)cc1

>  <measured_endpoint>
inhibition

>  <test_result>
Active

$$$$
>  <given_smiles>
Cc1cc(C(N)=O)ccc1-n1c(CCC(=O)O)ccc1-c1ccc(-n2ccnc2)cc1

>  <measured_endpoint>
inhibition

>  <test_result>
inactive

$$$$
>  <given_smiles>
Cc1cc(C(N)=O)ccc1-c1c(-c2ccc(-n3ccnc3)cc2)ccn1CCC(=O)O

>  <measured_endpoint>
inhibition

>  <test_result>
inactive

$$$$
>  <given_smiles>
Cc1cc(C(N)=O)ccc1-c1c(CCC(=O)O)ccn1-c1ccc(-n2ccnc2)cc1

>  <measured_endpoint>
inhibition

>  <test_result>
inactive

$$$$

inhibition for "COc1ccc(-c2ccn(-c3ccc(O)c([N+](=O)[O-])c3)c2-c2ccc(C(N)=O)cc2C)cc1" is Active

---

Molecular target: Vasoactive intestinal polypeptide receptor 1 (Homo sapiens)
Assay: Inhibition of human recombinant VPAC1 receptor at 10 uM by radioligand binding assay
The source made the active and inactive calls. No cut-off for these calls is given here.
measured_endpoint: inhibition

Example entries begin here.
>  <given_smiles>
Cc1cc(C(N)=O)ccc1-c1c(-c2ccc(-n3ccnc3)cc2)ccn1CCC(=O)O

>  <test_result>
inactive

$$$$
>  <given_smiles>
COc1ccc(-c2ccn(-c3ccc(O)c([N+](=O)[O-])c3)c2-c2ccc(C(N)=O)cc2C)cc1

>  <test_result>
Active

$$$$
>  <given_smiles>
COc1ccc(-c2ccn(-c3ccc(C(=O)O)c(O)c3)c2-c2ccc(C(N)=O)cc2C)cc1

>  <test_result>
Active

$$$$
>  <given_smiles>
Cc1cc(C(N)=O)ccc1-c1c(CCC(=O)O)ccn1-c1ccc(-n2ccnc2)cc1

>  <test_result>
inactive

$$$$

Next:
inhibition for "Cc1cc(C(N)=O)ccc1-n1c(CCC(=O)O)ccc1-c1ccc(-n2ccnc2)cc1" is inactive

---

Molecular target: Vasopressin V1a receptor (Homo sapiens)
Experiment: Inhibition of human recombinant V1a receptor at 10 uM by radioligand binding assay
Active and inactive are the calls of the source. The rule behind the calls is not given here.
Hello, when you answer, please use one of the following outcomes: active, inactive

Some solved entries appear below for comparison.
>  <given_smiles>
COc1ccc(-c2ccn(-c3ccc(C(=O)O)c(O)c3)c2-c2ccc(C(N)=O)cc2C)cc1

>  <assigned_label>
active

$$$$
>  <given_smiles>
Cc1cc(C(N)=O)ccc1-c1c(CCC(=O)O)ccn1-c1ccc(-n2ccnc2)cc1

>  <assigned_label>
inactive

$$$$
>  <given_smiles>
Cc1cc(C(N)=O)ccc1-n1c(CCC(=O)O)ccc1-c1ccc(-n2ccnc2)cc1

>  <assigned_label>
inactive

$$$$
>  <given_smiles>
Cc1cc(C(N)=O)ccc1-c1c(-c2ccc(-n3ccnc3)cc2)ccn1CCC(=O)O

>  <assigned_label>
inactive

$$$$

Next:
// query Status in this test for "COc1ccc(-c2ccn(-c3ccc(O)c([N+](=O)[O-])c3)c2-c2ccc(C(N)=O)cc2C)cc1" ?
// result active

---

Test: Oral bioavailability in BALB/c mouse at 10 mg/kg administered as single dose
Assay type: ADME, organism-based
Conditions: in vivo
measured_endpoint: bioavailability
Kindly report the value followed by its unit.

>  <given_smiles>
COc1ccc(-c2ccn(CCC(=O)O)c2-c2ccc(C(N)=O)cc2C)cc1

>  <bioavailability>
12.2%

$$$$

Next:
bioavailability for "COc1ccc(-c2ccc(CCC(=O)O)n2-c2ccc(C(N)=O)cc2C)cc1" is 16.2%
